binning response values, listed per item
Biological target: Biotinylated CoV2 Spike ECD PreS-AVI protein (SARS-CoV-2, UniProt P0DTC2 14-1208)
Assay: Octet binning; competitor 11F8
// return a plain number; no unit text

BINDER	binning response
3D4 VHH-Fc (Fc fusion) QVQLVESGGGLVQPGGSLRLSCAASGFTLDLNSIGWFRQAPGKEREGVSCISPSGSRMHYADSVKGRFTISRDNAKNTVYLQMNSLKPEDTAVYYCATGSPSYHYCSMYGLEYDSWGQGTQVTVPS	0.09

Please examine the following record next.
Q: For the binder 5A6 VHH-Fc (Fc fusion) QVQLVESGGGLAQAGGSLRLSCATSGLTFSMSAMGWFRQAPGNEREFVGVINWNGGSSRYADSVRGRFTISRDNAKNTVYLQMNSLKPEDTGVYYCAADALNIGTGEVNPRLYDYWGQGTQVMVSS , what binning response is on record?
A: 0.09
